Molecular target: GABAA receptor ([35S]-TBPS binding, rat brain cortical membranes)
Assay: Steroid inhibition of [35S]-TBPS binding (radioligand displacement)
Conditions: 3 nM [35S]-TBPS, in the presence of 5 μM GABA
pIC50: −log10 of the molar value.
parameter: pIC50

[[record]]
smiles_text = "COC[C@]12CC[C@@](C)(O)C[C@H]1CC[C@H]1[C@@H]3CC[C@H](C(=O)Cn4nnc5cc(OC)ccc54)[C@@]3(C)CC[C@@H]12"
parameter = "pIC50"
measurement = "> 8.00"

[[record]]
smiles_text = "COC[C@]12CC[C@@](C)(O)C[C@@H]1CC[C@H]1[C@@H]3CC[C@H](C(=O)Cn4nc5cc(F)cc(F)c5n4)[C@@]3(C)CC[C@@H]12"
parameter = "pIC50"
measurement = "> 8.00"

[[record]]
smiles_text = "COC[C@]12CC[C@@](C)(O)C[C@@H]1CC[C@H]1[C@@H]3CC[C@H](C(=O)Cn4ncc5c(OC)cccc54)[C@@]3(C)CC[C@@H]12"
parameter = "pIC50"
measurement = "7.00 to 7.30"

[[record]]
smiles_text = "COC[C@]12CC[C@@](C)(O)C[C@@H]1CC[C@H]1[C@@H]3CC[C@H](C(=O)Cn4ncc5cc(OC)ccc54)[C@@]3(C)CC[C@@H]12"
parameter = "pIC50"
measurement = "7.00 to 7.30"

[[record]]
smiles_text = "CC(C)OC[C@]12CC[C@@](C)(O)C[C@H]1CC[C@H]1[C@@H]3CC[C@H](C(=O)Cn4nnc5ccc(F)c(F)c54)[C@@]3(C)CC[C@@H]12"
parameter = "pIC50"
measurement = "> 8.00"

[[record]]
smiles_text = "COC[C@]12CC[C@@](C)(O)C[C@H]1CC[C@H]1[C@@H]3CC[C@H](C(=O)Cn4nnc5cccc(OC)c54)[C@@]3(C)CC[C@@H]12"
parameter = "pIC50"
measurement = "> 8.00"

[[record]]
smiles_text = "COC[C@]12CC[C@@](C)(O)C[C@@H]1CC[C@H]1[C@@H]3CC[C@H](C(=O)Cn4cc(C(=O)O)nn4)[C@@]3(C)CC[C@@H]12"
parameter = "pIC50"
measurement = "< 6.30"

[[record]]
smiles_text = "COC[C@]12CC[C@@](C)(O)C[C@@H]1CC[C@H]1[C@@H]3CC[C@H](C(=O)Cn4nnc5cc(Cl)cnc54)[C@@]3(C)CC[C@@H]12"
parameter = "pIC50"
measurement = "> 8.00"

[[record]]
smiles_text = "COC[C@]12CC[C@@](C)(O)C[C@@H]1CC[C@H]1[C@@H]3CC[C@H](C(=O)Cn4cc(C)cn4)[C@@]3(C)CC[C@@H]12"
parameter = "pIC50"
measurement = "6.30 to 7.00"

[[record]]
smiles_text = "COC[C@]12CC[C@@](C)(O)C[C@H]1CC[C@H]1[C@@H]3CC[C@H](C(=O)Cn4cc(C(F)(F)F)cn4)[C@@]3(C)CC[C@@H]12"
parameter = "pIC50"
measurement = "7.30 to 8.00"

[[record]]
smiles_text = "COC[C@]12CC[C@@](C)(O)C[C@@H]1CC[C@H]1[C@@H]3CC[C@H](C(=O)Cn4ncc5cccc(OC)c54)[C@@]3(C)CC[C@@H]12"
parameter = "pIC50"
measurement = "7.00 to 7.30"

[[record]]
smiles_text = "COC[C@]12CC[C@@](C)(O)C[C@H]1CC[C@H]1[C@@H]3CC[C@H](C(=O)Cn4cnc(F)c4)[C@@]3(C)CC[C@@H]12"
parameter = "pIC50"
measurement = "7.30 to 8.00"

